Target: estrone sulfatase activity in intact MDA-MB-231 breast cancer cells (Homo sapiens)
Sequence (P08842 22-583): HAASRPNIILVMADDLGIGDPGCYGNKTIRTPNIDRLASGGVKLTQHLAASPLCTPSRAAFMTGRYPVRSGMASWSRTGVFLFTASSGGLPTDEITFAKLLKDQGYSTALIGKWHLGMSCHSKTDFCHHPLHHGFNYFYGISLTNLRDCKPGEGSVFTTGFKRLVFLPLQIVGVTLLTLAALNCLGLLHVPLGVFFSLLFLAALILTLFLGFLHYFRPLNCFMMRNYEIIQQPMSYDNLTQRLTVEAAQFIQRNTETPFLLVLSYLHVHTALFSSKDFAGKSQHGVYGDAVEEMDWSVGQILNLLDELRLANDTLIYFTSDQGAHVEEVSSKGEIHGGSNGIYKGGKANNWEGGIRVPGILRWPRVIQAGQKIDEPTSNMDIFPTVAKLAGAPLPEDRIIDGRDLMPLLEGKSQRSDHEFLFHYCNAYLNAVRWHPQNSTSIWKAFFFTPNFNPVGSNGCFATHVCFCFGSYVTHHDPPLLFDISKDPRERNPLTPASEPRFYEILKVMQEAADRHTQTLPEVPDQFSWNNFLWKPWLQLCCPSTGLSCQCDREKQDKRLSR
Assay: In vitro estrogen sulfatase assay on intact cell monolayers
Settings: intact MDA-MB-231 monolayers, 18 hours at 37° C., [3H]E1S (2 nM), inhibitor 0.1 nM to 1 μM; read-out: apparent I.C. 50, concentration of the inhibitor to inhibit 50% of the sulfatase activity in the MDA-MB-231 cells
measurementType: IC50

chemSmiles | val
CCCCCCCCCCCC(=O)NCCc1ccc(OS(N)(=O)=O)cc1 | 1 to 2 nM
